// data source = patent US5332733A

test system: passive cutaneous anaphylaxis (PCA); experiment: Inhibition of passive cutaneous anaphylaxis (PCA) in rats; assay type: in vivo, Sprague-Dawley rats; details: Rattus norvegicus, 1 h, 2 × 10^-5 mole/kg per os, one hour before ovalbumin challenge
Everything with inhibition in vivo at 20 µmol/kg lower than 70% is Criterion not met; everything else, including exactly 70%, is Criterion met.

In: Say whether Cc1ccnc(N2CCN(CCCCC3Sc4cc(C)c(C)cc4NC3=O)CC2)c1 (stereo not drawn) shows inhibition in vivo at 20 µmol/kg of 70% or more.
Out: Criterion met

In: Say whether Cc1ccnc(N2CCN(CCCC3Sc4ccccc4NC3=O)CC2)c1 (stereo not drawn) shows inhibition in vivo at 20 µmol/kg of 70% or more.
Out: Criterion met

* * *

System: mice
Conditions: mouse, in vivo, 1440 min
Description: 2. Determination of Minimum Toxic Dose Maximum doses of 300 mg/kg of the test substance were administered orally to male mice weighing 20-25 g. The animals were observed carefully for 3 hours for toxicity symptoms. In addition, all symptoms and deaths were recorded over a period of 24 hours after administration. Associated symptoms were also observed and recorded. If death or severe toxic symptoms were observed, additional mice were administered increasingly lower doses. […]
EXPERIMENTAL_READOUT: Minimum toxic dose (mg/kg)
Record the value in mg/kg, omitting the unit from your answer.

[[record]]
compound = "Cc1ccnc(N2CCN(CCCCC3Sc4ccccc4NC3=O)CC2)c1 (stereo not drawn)"
measurement_unit = "mg/kg"
reported = 300


In: Give Minimum toxic dose for this entry on mice: Cc1ccnc(N2CCN(CCCC3Sc4ccccc4NC3=O)CC2)c1 (stereo not drawn)
Out: 100

* * *

target: histamine-(H1)-receptor (Cavia porcellus, UniProt P31389); construct: Segments of the ileum 1.5 cm long from Dunkin Hartley guinea pigs; from tissue; host or cells: isolated ileum of Dunkin Hartley guinea pigs; assay: Histamine-(H1)-receptor antagonism in vitro, histamine-induced contractions of isolated ileum; type: cell-based, guinea pig (Dunkin Hartley); conditions: 0.5 min; test substance 10^-6 mole/l, histamine 5 × 10^-6 mole/l, after 30 seconds; read-out: % inhibition of histamine-induced ileum contractions after 30 seconds
Sequence (P31389 whole entry): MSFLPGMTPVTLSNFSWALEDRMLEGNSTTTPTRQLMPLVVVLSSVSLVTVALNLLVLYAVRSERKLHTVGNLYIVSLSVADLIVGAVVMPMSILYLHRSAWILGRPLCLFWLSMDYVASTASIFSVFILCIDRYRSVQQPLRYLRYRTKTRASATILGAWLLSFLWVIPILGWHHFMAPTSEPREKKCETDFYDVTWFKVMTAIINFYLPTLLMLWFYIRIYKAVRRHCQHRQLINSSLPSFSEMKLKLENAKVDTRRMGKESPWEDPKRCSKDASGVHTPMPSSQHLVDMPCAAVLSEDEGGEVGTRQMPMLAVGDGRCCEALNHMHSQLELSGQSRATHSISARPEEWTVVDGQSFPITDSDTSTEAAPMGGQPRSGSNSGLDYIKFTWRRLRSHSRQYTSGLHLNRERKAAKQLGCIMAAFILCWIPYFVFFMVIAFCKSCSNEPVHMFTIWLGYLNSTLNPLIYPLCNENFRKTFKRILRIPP
EXPERIMENTAL_READOUT: inhibition at 1 µM (%)
Record the value in %, omitting the unit from your answer.

Observe how each entry below is paired with its result.
[[record]]
compound = "CCCCN1C(=O)C(CCCCN2CCN(c3cc(C)ccn3)CC2)Sc2ccccc21 (stereo not drawn)"
system_name = "histamine-(H1)-receptor (Cavia porcellus, UniProt P31389)"
measurement_unit = "%"
reported = 38

[[record]]
compound = "Cc1ccnc(N2CCN(CCCCC3Sc4cc(C)c(C)cc4NC3=O)CC2)c1 (stereo not drawn)"
system_name = "histamine-(H1)-receptor (Cavia porcellus, UniProt P31389)"
measurement_unit = "%"
reported = 50


Next compound, inhibition at 1 µM to be filled in.
In: Query inhibition at 1 µM for Cc1ccnc(N2CCN(CCCCC3Oc4ccccc4NC3=O)CC2)c1 (stereo not drawn)
Out: 85

* * *

tested on: passive cutaneous anaphylaxis (PCA); assay: Inhibition of passive cutaneous anaphylaxis (PCA) in rats; assay type: in vivo, Sprague-Dawley rats; details: Rattus norvegicus, 1 h, 2 × 10^-5 mole/kg per os, one hour before ovalbumin challenge
EXPERIMENTAL_READOUT: inhibition in vivo at 20 µmol/kg (%)
Record the value in %, omitting the unit from your answer.

In: Query inhibition in vivo at 20 µmol/kg for O=C1Nc2ccccc2SC1CCCCN1CCN(c2ncccn2)CC1 (stereo not shown) [Example 12]
Out: 80

* * *

Parameter inhibition in vivo at 20 µmol/kg: see the listing below.
tested on: passive cutaneous anaphylaxis (PCA); test: Inhibition of passive cutaneous anaphylaxis (PCA) in rats; assay type: in vivo, Sprague-Dawley rats; settings: Rattus norvegicus, 1 h, 2 × 10^-5 mole/kg per os, one hour before ovalbumin challenge
Record the value in %, omitting the unit from your answer.

Observe how each entry below is paired with its result.
[[record]]
compound = "O=C1Nc2ccccc2SC1CCCN1CCN(c2ccc(Cl)cn2)CC1 (stereo not drawn)"
system_name = "passive cutaneous anaphylaxis (PCA)"
reported = 60

[[record]]
compound = "CCCCN1C(=O)C(CCCCN2CCN(c3cc(C)ccn3)CC2)Sc2ccccc21 (stereo not drawn)"
system_name = "passive cutaneous anaphylaxis (PCA)"
reported = 65

[[record]]
compound = "Cc1ccnc(N2CCN(CCCCC3Sc4cc(O)ccc4NC3=O)CC2)c1 (stereo not drawn)"
system_name = "passive cutaneous anaphylaxis (PCA)"
reported = 50

[[record]]
compound = "COc1ccc2c(c1)SC(CCCCN1CCN(c3cc(C)ccn3)CC1)C(=O)N2 (stereo not drawn)"
system_name = "passive cutaneous anaphylaxis (PCA)"
reported = 80

[[record]]
compound = "Cc1ccnc(N2CCN(CCCC3Oc4ccc(C)cc4NC3=O)CC2)c1 (stereo not drawn)"
system_name = "passive cutaneous anaphylaxis (PCA)"
reported = 69


Next compound, inhibition in vivo at 20 µmol/kg to be filled in.
In: Query inhibition in vivo at 20 µmol/kg for Cc1ccnc(N2CCN(CCCC3Sc4cc(C)ccc4NC3=O)CC2)c1 (stereo not drawn)
Out: 70
